Documented GI50 across a set of compounds
Tested on: A549
Assay procedure: NCI tumour cell line growth inhibition, 48 h
Active and inactive are the calls of the source. Rule as the data show it: active = GI50 up to about 1.1 µM and inactive = higher.
Measured quantity: GI50

* NC(=O)CC(N)C(=O)NC(Cc1ccccc1)C(=O)NC(Cc1ccccc1)NC(=O)C(Cc1c[nH]c2ccccc12)C(=O)O (stereo not given) | > 100 µM (inactive)
* Cc1cc(Cc2cc(C)c(NC(=O)C(=O)C3C(=O)NC(=S)NC3=O)c(C(C)C)c2)cc(C(C)C)c1NC(=O)C(=O)C1C(=O)NC(=S)NC1=O | > 100 µM (inactive)
* Cc1c(-c2cnccn2)ssc1=S | 98.9 µM (inactive)
* O=C(CN1CCCCC1)Nc1ccc2sc3ccccc3c(=O)c2n1 | 15 µM (inactive)
* Cc1n[nH]c(=O)c2c3c([nH]c12)-c1ccccc1C3 | > 100 µM (inactive)
* CN(C)CCCN1c2ccccc2CCc2ccc([N+](=O)[O-])cc21 | 34.6 µM (inactive)
* NC(=S)N/N=C(/CCN1CCCC1)CC(C1=C(O)C2=CCCCC2OC1=O)c1ccccc1 (stereo not given) | > 100 µM (inactive)
* O=C1OC(=O)C2C3C=CC(C12)C1C2C=CC2C31 (stereo not given) | > 100 µM (inactive)
* O=C(Nc1cc2c(=O)oc3ccccc3c2oc1=O)c1cccnc1 | > 100 µM (inactive)
* CC1(C)OC(=O)C(c2ccsc2)C(=O)O1 | > 100 µM (inactive)

====

Tested on: Hs-578T
Assay procedure: NCI tumour cell line growth inhibition, 48 h
Calls of active or inactive are those of the source. Cut-off read from the data, not from the text of the source: active = GI50 up to about 1.1 µM and inactive = higher. Square brackets hold non-standard residues; d marks the D form. Peptide text beside a SMILES is read from it.
Labels: YES (active), NO (inactive)

* COc1cc2c(cc1OC)C(N)CC2=O (configuration not stated) | NO
* COc1cc(C=O)ccc1Oc1nnnn1-c1ccccc1 | NO
* COc1cc(OC)nc(-n2c(N)c(C#N)c3ccc([N+](=O)[O-])cc3c2=O)n1 | NO
* O=[N+]([O-])c1ccc2sc(/C=N/c3ccccn3)cc2c1 | NO
* CCN1CCC(O)(c2ccc([N+](=O)[O-])cc2)C(C(=O)c2ccc([N+](=O)[O-])cc2)C1 (configuration not stated) | NO
* Cc1cccc(CC(Cc2c(C)cccc2C(=O)O)C(=O)O)c1 (configuration not stated) | NO
* C=CCC(C)C12CCNC(Cc3ccc(O)cc31)C2C (configuration not stated) | NO
* COc1ccc(CCCNC(=O)Cc2ccccc2CO)cc1OC | NO
* COc1cc(Nc2nc3c(N)cc(C(F)(F)F)cc3nc2-c2ccccc2)cc(OC)c1OC | NO
* Nc1ccc(S(=O)(=O)Nc2nc3ccccc3nc2N2CCCCCC2)cc1 | NO
* OC1C2CCCCN2C[C@@H](O)[C@H]1O (some centres not stated) | NO
* CC1CN(C)c2ccccc2N=C1NN (configuration not stated) | NO
* N=C(N)NCCC[C@H]1NC(=O)[C@@H](CCC(=O)O)NC(=O)[C@@H](CC(=O)O)NC(=O)[C@@H](CCC(=O)O)NC(=O)[C@H](Cc2c[nH]c3ccccc23)NC1=O (cyclo(W[dE][dD][dE][dR])) | NO
* COc1ccc(C(=O)N2CCc3c([nH]c4ccccc34)C2C(=O)O)o1 (configuration not stated) | NO
* C=C(C)CCC1CC=[N+]([O-])OC1C(C)(C)C (configuration not stated) | NO
* O=[N+]([O-])c1c(Br)cc(Br)c2c1Nc1c(ccc(Cl)c1Cl)S2 | NO
* Cc1nc(N)c(N2CCN(C(=O)O)CC2)c(O)n1 | NO
* c1ccc(C/C(=N\Nc2nc3ccccc3o2)c2ccccn2)cc1 | YES
* S=C(N/N=C(/c1ccccc1)c1ccccn1)N1CCCCCC1 | YES
* CCOC(=O)C1=C(C)C(C(=O)OC)/C(=C/c2cccc3cccnc23)C1=O (configuration not stated) | NO
* Cc1cc(=O)oc2c(CNC(C)C(=O)O)c(O)ccc12 (configuration not stated) | NO
* CC(=O)N(C(C)=O)c1cc2c3c(c1)CCCN3CCC2 | NO
* O=[N+]([O-])/C=C/COCc1cc2c(cc1Br)OCO2 | NO
* Cc1ccc(N(Cc2ccccc2)Cc2ccccc2)cc1 | NO
* CCN(CC)CCSc1c2cc(OC)ccc2nc2ccc(OC)cc12 | NO
* C/C(=N\Nc1nc2cc(C)ccc2s1)c1ccccn1 | NO
* CC(=O)OCC1OC(O[C@@H]2C[C@H]3C(C)(C)[C@@H](OC(C)=O)CC[C@]3(C)[C@H]3CC[C@]45C[C@]4(CC[C@H]5[C@@H](C)C[C@@H](O)[C@H](O)C(C)(C)F)[C@@]32C)C(O)C(O)C1O (some centres not stated) | NO
* O=C(CN1CCCCC1)Nc1ccc2sc3ccccc3c(=O)c2n1 | NO
* CCOc1c(OC)cc(CNNc2nccs2)cc1OC | NO
* N#CC1=C(N)OC(c2cccc([N+](=O)[O-])c2)C1(C#N)C#N (configuration not stated) | NO
* O=C(CC(=O)Nc1ccccc1Cl)NNC(Sc1ccccc1)c1cc(/N=N/c2ccc(Br)cc2)ccc1O (configuration not stated) | NO
* CSC(=S)N/N=C(\C)c1cccc(C)n1 | NO
* O=C1Nc2cc(Cl)ccc2C(=O)N2CCC[C@@H]12 | NO
* Cc1ccc(/N=N/c2c(C)nn(C(=O)CC(=O)Nc3ccccc3)c2C)cc1C | NO
* O=c1c(Cc2ccccc2)c(-c2ccccc2)[nH]n1C1=NCCN1 | NO
* S=P(C1CCCCC1)(C1CCCCC1)C(c1cccnc1)N1CCCC1 (configuration not stated) | NO
* c1ccc(-c2ccc(/N=N/N3CCCC3)cc2)cc1 | NO
* O=C(O)CN1CCNCCN(CC(=O)O)CC1 | NO
* CCOC(=O)C1(Cc2ccc(C)cc2)Cc2ccc(C)cc2C1=O (configuration not stated) | NO
* O=S1(=O)OCCOS(=O)(=O)C1(F)Br | NO
* CC(C)[C@H](O)C(=O)N[C@H]1Cc2ccc3c(c2)[C@]24C5=C(N=C(O5)[C@H](C(C)C)NC1=O)c1nc(Cl)c(o1)-c1c(Cl)[nH]c5cccc(c15)-c1cccc2c1N[C@H]4O3 | YES
* N#Cc1cnn2ccn(C3OC(COC(=O)c4ccccc4)C(OC(=O)c4ccccc4)C3OC(=O)c3ccccc3)c12 (configuration not stated) | NO

====

Tested on: SNB-75
Assay procedure: NCI tumour cell line growth inhibition, 48 h
Active and inactive are the calls of the source. Cut-off read from the data, not from the text of the source: active = GI50 up to about 1.1 µM and inactive = higher.
Labels: active, inactive

• NNC(=O)CC(=O)Nc1ccc(C(=O)O)cc1 = inactive
• O=c1cc(-c2ccccc2)oc2cc(OCCCOc3ccc4c(=O)cc(-c5ccccc5)oc4c3)ccc12 = inactive
• CN(Cc1cnc2c(N)nc(N)nc2n1)c1ccc(Cl)cc1 = inactive
• Oc1cc(-n2cccn2)c(O)cc1-n1cccn1 = inactive
• C=C1[C@@H](C)[C@H]2[C@H](Cc3ccccc3)NC(=O)[C@]23OC(=O)/C=C/[C@H](O)CCC[C@@H](C)C/C=C/[C@H]3[C@@H]1O = active

====

System: SF-268
Assay procedure: NCI tumour cell line growth inhibition, 48 h
The source made the active and inactive calls. Rule as the data show it: active = GI50 up to about 1.1 µM and inactive = higher.
Measured quantity: GI50

* CC1CN(C)c2ccccc2N=C1NN (stereo unspecified) | > 100 µM (inactive)
* Cc1noc(/N=C2\C=C(O)C(=O)c3ccccc32)c1C | 16.9 µM (inactive)
* O=C1c2c(ccc3c2CCC3)CC12Cc1cc3c(cc1C2)CCC3 | > 100 µM (inactive)
* c1ccc(-c2ccc(/N=N/N3CCCC3)cc2)cc1 | > 100 µM (inactive)
* Nc1c(-c2nc3ccccc3[nH]2)sc(=S)n1-c1ccccc1 | > 100 µM (inactive)
* Cc1n[nH]c(=O)c2c3c([nH]c12)-c1ccccc1C3 | > 100 µM (inactive)
* CCOC(=O)C1(Cc2ccc(C)cc2)Cc2ccc(C)cc2C1=O (stereo unspecified) | 48.4 µM (inactive)
* CCOc1cc2c(cc1O)/C(=N\N)C[C@@H]1[C@@H]2CC[C@]2(C)[C@@H](O)CC[C@@H]12 | 5.3 µM (inactive)
* CC(C)=CC(=O)CC(=O)C(=O)Nc1ccc(C)c(C)c1 | > 100 µM (inactive)
* CC(=O)/C=C\C(=O)NNS(=O)(=O)c1ccc(C)cc1 | > 100 µM (inactive)
* Cc1cc(C)c(C#N)c(SC(=S)NC(=O)c2ccc(Cl)cc2)n1 | > 100 µM (inactive)

====

System: NCI-H23
Assay procedure: NCI tumour cell line growth inhibition, 48 h
Active and inactive are the calls of the source. No stated cut-off is given here; in the data, active = GI50 up to about 1.1 µM and inactive = higher.
Labels: 1 (active), -1 (inactive)

- N/C(=N\N=C\c1cc2ccccc2s1)c1cnccn1: -1
- NNC(=O)N/N=C(/CC1(O)C(=O)Nc2ccc(Br)cc21)c1ccccc1 (stereo unspecified): -1
- C=CCC(C)C12CCNC(Cc3ccc(O)cc31)C2C (stereo unspecified): -1
- CC(O)c1c2c(cc3c1CC1(C3)Cc3cc4c(c(C(C)O)c3C1)CCC4)CCC2 (stereo unspecified): -1
- O=C(O)CN1CCNCCN(CC(=O)O)CC1: -1
- Cc1cc2nc3c(=O)[nH]c(=O)nc-3n(CC(O)C(O)C(O)CO)c2cc1N (stereo unspecified): -1
- CCOC(=O)C1=C(C)C(C(=O)OC)/C(=C/c2cccc3cccnc23)C1=O (stereo unspecified): -1
- Cc1cccc(-n2c(N)c(-c3nc4ccccc4[nH]3)sc2=S)c1: -1
- Cc1nc(N)c(N2CCN(C(=O)O)CC2)c(O)n1: -1
- COc1ccc(OC)c(C2CCCc3c2cnc2nc(N)nc(N)c32)c1 (stereo unspecified): 1
- CCN(CC)C(=O)Cn1c2ccccc2[n+]2cc(N)ccc12: -1
